Assay read-out IC50; system under study: UniProt Q9UQL6.
Sequence (Q9UQL6 656-1122): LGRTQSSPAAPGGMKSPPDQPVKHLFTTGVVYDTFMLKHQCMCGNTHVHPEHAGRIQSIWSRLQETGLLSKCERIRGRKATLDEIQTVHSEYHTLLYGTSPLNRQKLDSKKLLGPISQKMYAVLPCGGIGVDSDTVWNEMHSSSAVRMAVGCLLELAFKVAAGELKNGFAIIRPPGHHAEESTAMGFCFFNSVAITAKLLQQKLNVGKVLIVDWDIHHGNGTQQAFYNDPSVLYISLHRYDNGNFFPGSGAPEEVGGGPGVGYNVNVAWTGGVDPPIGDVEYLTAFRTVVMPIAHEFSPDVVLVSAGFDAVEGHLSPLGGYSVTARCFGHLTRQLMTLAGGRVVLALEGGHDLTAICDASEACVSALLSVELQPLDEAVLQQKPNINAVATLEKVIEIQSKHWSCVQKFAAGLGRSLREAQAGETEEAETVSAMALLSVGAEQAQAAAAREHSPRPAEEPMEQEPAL
# output: bare number, implied unit µM

[[record]]
molecule = "Fc1cc(COc2[nH]nc3c2COCC3)ccc1-c1noc(C(F)(F)F)n1"
result_unit = "µM"
obs_value = 0.074


Task item: Would you please give the reported IC50 of FC(F)(F)c1nc(-c2ccc(COc3ccc4cnccc4n3)nc2)no1 with UniProt Q9UQL6?
Reply: 0.54

Task item: Would you please give the reported IC50 of Fc1cc(COc2nnc(C3CC3)o2)ccc1-c1noc(C(F)(F)F)n1 with UniProt Q9UQL6?
Reply: 0.19

Task item: Would you please give the reported IC50 of O=C(NC(Cc1ccc(-c2noc(C(F)(F)F)n2)cn1)c1cccc(C(F)(F)F)c1)c1ccccn1 (racemic) with UniProt Q9UQL6?
Reply: 0.67

Task item: Would you please give the reported IC50 of O=C(N1CCOCC1)N(Cc1ccc(-c2noc(C(F)(F)F)n2)cn1)c1cccc(C(F)(F)F)c1 with UniProt Q9UQL6?
Reply: 1.9

Task item: Would you please give the reported IC50 of O=C(C1CCS(=O)(=O)CC1)N(Cc1ccc(-c2noc(C(F)(F)F)n2)cn1)c1cccc(F)c1 with UniProt Q9UQL6?
Reply: 1.1

Task item: Would you please give the reported IC50 of O=C(COc1cc(-c2noc(C(F)(F)F)n2)ccn1)N1CCOCC1 with UniProt Q9UQL6?
Reply: 0.55

Task item: Would you please give the reported IC50 of Nc1cccnc1COCc1ccc(-c2noc(C(F)(F)F)n2)c(F)c1 with UniProt Q9UQL6?
Reply: 0.12

Task item: Would you please give the reported IC50 of O=C(NC(Cc1ccc(-c2noc(C(F)(F)F)n2)cn1)c1cccc(C(F)(F)F)c1)c1ccccc1 (racemic) with UniProt Q9UQL6?
Reply: 0.67

Task item: Would you please give the reported IC50 of O=c1ccc2cnccc2n1Cc1ccc(-c2noc(C(F)(F)F)n2)cn1 with UniProt Q9UQL6?
Reply: 0.037

Task item: Would you please give the reported IC50 of Fc1cc(COc2ccc(Cl)nc2)ccc1-c1noc(C(F)(F)F)n1 with UniProt Q9UQL6?
Reply: 0.28

Task item: Would you please give the reported IC50 of O=C(NC(Cc1ccc(-c2noc(C(F)(F)F)n2)cn1)c1cccc(C(F)(F)F)c1)c1ncccn1 (racemic) with UniProt Q9UQL6?
Reply: 0.72

Task item: Would you please give the reported IC50 of Cc1cc(C)nc(COc2nccc(-c3noc(C(F)(F)F)n3)c2Cl)n1 with UniProt Q9UQL6?
Reply: 0.85

Task item: Would you please give the reported IC50 of CCCC(=O)NC(Cc1ccc(-c2noc(C(F)(F)F)n2)cn1)c1cccc(C(F)(F)F)c1 (racemic) with UniProt Q9UQL6?
Reply: 0.44

Task item: Would you please give the reported IC50 of NCc1ccccc1OCc1ccc(-c2noc(C(F)(F)F)n2)c(F)c1 with UniProt Q9UQL6?
Reply: 0.16

Task item: Would you please give the reported IC50 of FC(F)(F)c1nc(-c2ccc(COc3nccc4nccn34)nc2)no1 with UniProt Q9UQL6?
Reply: 0.17

Task item: Would you please give the reported IC50 of Cc1ccc(OCc2ccc(-c3noc(C(F)(F)F)n3)c(F)c2)nn1 with UniProt Q9UQL6?
Reply: 0.24

====

experimental-target: HDAC8 (Homo sapiens (Human))
Sequence (Q9BY41 whole entry): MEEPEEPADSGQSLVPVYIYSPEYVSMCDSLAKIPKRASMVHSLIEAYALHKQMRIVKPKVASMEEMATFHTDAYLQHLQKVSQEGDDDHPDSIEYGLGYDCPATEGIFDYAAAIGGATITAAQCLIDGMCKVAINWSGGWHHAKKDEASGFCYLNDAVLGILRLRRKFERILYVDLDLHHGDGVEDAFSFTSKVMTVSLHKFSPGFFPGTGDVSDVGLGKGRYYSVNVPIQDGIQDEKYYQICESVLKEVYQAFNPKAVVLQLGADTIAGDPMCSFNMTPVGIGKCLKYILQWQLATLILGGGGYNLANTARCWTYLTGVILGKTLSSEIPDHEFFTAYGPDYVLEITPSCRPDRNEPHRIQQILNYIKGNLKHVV
Returns: string. Value is YES if measured IC50 is below 2 µM, and NO if it is greater than or equal to it.

Example cases with answers are listed next.
[[record]]
molecule = "Cn1cccc(OCc2ccc(-c3noc(C(F)(F)F)n3)c(F)c2)c1=O"
answer_label = "NO"

[[record]]
molecule = "Fc1cc(COc2cnc3c(c2)COC3)ccc1-c1noc(C(F)(F)F)n1"
answer_label = "NO"

[[record]]
molecule = "O=C(CC1CNCCO1)N(Cc1ccc(-c2noc(C(F)(F)F)n2)cc1)c1cccc(C(F)(F)F)c1 (racemic)"
answer_label = "NO"

[[record]]
molecule = "Cc1nc(OCc2ccc(-c3noc(C(F)(F)F)n3)c(F)c2)c2cnn(C)c2n1"
answer_label = "NO"

[[record]]
molecule = "Fc1ccccc1C1COCCN1c1ccc(-c2noc(C(F)(F)F)n2)cn1 (racemic)"
answer_label = "YES"


Task item: Please let me know if FC(F)(F)c1nc(-c2ccc(CNc3ccc4ccncc4c3)nc2)no1 shows IC50 below 2 µM.
Reply: YES

Task item: Please let me know if COc1ncccc1OCc1ccc(-c2noc(C(F)(F)F)n2)c(F)c1 shows IC50 below 2 µM.
Reply: NO
